Measured values drawn from ChEMBL document CHEMBL3098088 for this set.

- Test Summary: Selectivity index, ratio of IC50 for human 293T cells to MIC for Mycobacterium tuberculosis H37Rv
- Type: toxicity, cell-based
- Assay Setup: read-out: Selectivity Index
Value Kind: selectivity ratio
Output: the number by itself.

CC[C@H](C)[C@H](O)C(=O)N[C@@H]1C[C@H]2CC[C@]1(C)C2(C)C 13.6
CC1(C)[C@@H]2CC[C@@]1(C)[C@H](NC(=O)[C@@H](O)c1ccccc1)C2 619
CC(C)C[C@H](O)C(=O)N[C@@H]1C[C@H]2CC[C@]1(C)C2(C)C 14.9
CSCC[C@H](O)C(=O)N[C@@H]1C[C@H]2CC[C@]1(C)C2(C)C 1010

Okay, next one:
Quick one: selectivity ratio for CC1(C)[C@@H]2CC[C@@]1(C)[C@H](NC(=O)[C@@H](O)Cc1ccccc1)C2 ?
330
